# Test system: TWEAK-Fn14 signalling pathway, BRV5 cells
# Protocol Details: Cell-based screening of individual peptides, gene expression microarray in TWEAK-stimulated BRV5 cells
# Design: species or system human
# Setup Conditions: individual peptides, BRV5 + TWEAK, 450 µM, 6 h; replicate column 2
Measured Quantity: MAP4K4 mRNA expression (normalized to NARS2)

{"columns": ["Substance", "Assay System", "Reported"],
 "data": [
  ["SGVSTAQLD [Peptide 4]", "TWEAK-Fn14 signalling pathway, BRV5 cells", 0.2284],
  ["11: SGVAYQETT [Peptide 11]", "TWEAK-Fn14 signalling pathway, BRV5 cells", 0.1972],
  ["13: YSGYFGGFY [Peptide 13]", "TWEAK-Fn14 signalling pathway, BRV5 cells", 0.2468],
  ["30: DNGGGNTDIYSE [Peptide 30]", "TWEAK-Fn14 signalling pathway, BRV5 cells", 0.1321],
  ["1: GNGTDDNSGTSY [Peptide 1]", "TWEAK-Fn14 signalling pathway, BRV5 cells", 0.1719],
  ["TKGGGTADA [Peptide 3]", "TWEAK-Fn14 signalling pathway, BRV5 cells", 0.2421],
  ["46: TGYAENV [Peptide 46]", "TWEAK-Fn14 signalling pathway, BRV5 cells", 0.2245],
  ["SWYDHMAGDSSY [Peptide 35]", "TWEAK-Fn14 signalling pathway, BRV5 cells", 0.1258],
  ["42: YNGHVKDD [Peptide 42]", "TWEAK-Fn14 signalling pathway, BRV5 cells", 0.2473]
]}

* * *

# Test system: TWEAK-Fn14 signalling pathway, BRV5 cells
# Protocol Details: Cell-based screening of individual peptides, gene expression microarray in TWEAK-stimulated BRV5 cells
# Design: species or system human
# Setup Conditions: individual peptides, BRV5 + TWEAK, 450 µM, 6 h; mean of replicate columns
Measured Quantity: BIRC2 mRNA expression (normalized to NARS2)

{"columns": ["Substance", "Reported"],
 "data": [
  ["30: DNGGGNTDIYSE [Peptide 30]", 0.4705],
  ["42: YNGHVKDD [Peptide 42]", 0.5389],
  ["SWYDHMAGDSSY [Peptide 35]", 0.4507],
  ["TKGGGTADA [Peptide 3]", 0.7197],
  ["13: YSGYFGGFY [Peptide 13]", 0.4307],
  ["11: SGVAYQETT [Peptide 11]", 0.6438],
  ["1: GNGTDDNSGTSY [Peptide 1]", 0.5966],
  ["46: TGYAENV [Peptide 46]", 0.5415],
  ["SGVSTAQLD [Peptide 4]", 0.6267]
]}

* * *

# System: TWEAK-Fn14 signalling pathway, BRV5 cells
# Protocol Details: Cell-based screening of individual peptides, gene expression microarray in TWEAK-stimulated BRV5 cells
# Parameters: species or system human
# Setup Conditions: individual peptides, BRV5 + TWEAK, 450 µM, 6 h; replicate column 1
Criterion: MAPK14 mRNA expression (normalized to NARS2) meeting or surpassing 0.2. Met: T. Not met: F.

{"columns": ["Substance", "Assigned Label"],
 "data": [
  ["TKGGGTADA [Peptide 3]", "T"],
  ["13: YSGYFGGFY [Peptide 13]", "T"],
  ["42: YNGHVKDD [Peptide 42]", "T"],
  ["30: DNGGGNTDIYSE [Peptide 30]", "F"],
  ["11: SGVAYQETT [Peptide 11]", "T"],
  ["1: GNGTDDNSGTSY [Peptide 1]", "F"],
  ["SGVSTAQLD [Peptide 4]", "F"],
  ["SWYDHMAGDSSY [Peptide 35]", "F"],
  ["46: TGYAENV [Peptide 46]", "T"]
]}
